tested on: MOLT-4; test: NCI tumour cell line growth inhibition, 48 h
Calls of active or inactive are those of the source. Cut-off read from the data, not from the text of the source: active = GI50 up to about 1.1 µM and inactive = higher.

molecule	target.or.system	GI50
COc1ccc(C2=NN(c3nsc4ccccc34)C(=O)CC2)cc1	MOLT-4	44 µM (inactive)
O=c1oc2ccccc2cc1-c1csc(Nc2ccc(F)cc2)n1	MOLT-4	5.18 µM (inactive)
CCOC(=O)c1c(Sc2ccc([N+](=O)[O-])cc2[N+](=O)[O-])nc2c3ccccc3ccn12	MOLT-4	> 100 µM (inactive)
CC(C)(C)[Si](OC1CCOC1=O)(c1ccccc1)c1ccccc1 (stereo unspecified)	MOLT-4	17.5 µM (inactive)
CON(C)C(=O)C(Cc1ccccc1)NC(=O)OCc1ccccc1 (stereo unspecified)	MOLT-4	> 100 µM (inactive)
CC1CC(C)C2=NOS3=C2C1=NO3 (stereo unspecified)	MOLT-4	89.9 µM (inactive)
Cc1ccc2c(c1)C(=O)c1nc(C)ccc1C2=O	MOLT-4	69.3 µM (inactive)
CCOC(=O)C(=O)Nc1c(N(CC)CC)n2ccccc2nc1=O	MOLT-4	> 100 µM (inactive)
COc1cc(C2C(Cl)C(=O)N2NC(=O)c2ccc(N)cc2)ccc1O (stereo unspecified)	MOLT-4	23.5 µM (inactive)
CN1CCc2c(sc3ncn(Nc4ccc(Cl)cc4)c(=N)c23)C1	MOLT-4	> 100 µM (inactive)
CCCCC1Cc2ccccc2-c2nc3ccccc3n21 (stereo unspecified)	MOLT-4	13.6 µM (inactive)
